target: Human recombinant Histone Deacetylase 8 (HDAC8) (Homo sapiens (Human), UniProt Q9BY41); assay: HDAC8 Enzymatic Assay (HDAC-Glo I/II luminescence); type: biochemical; settings: class symbols, Table 14; read-out: HDAC8 IC50
Sequence (Q9BY41 whole entry): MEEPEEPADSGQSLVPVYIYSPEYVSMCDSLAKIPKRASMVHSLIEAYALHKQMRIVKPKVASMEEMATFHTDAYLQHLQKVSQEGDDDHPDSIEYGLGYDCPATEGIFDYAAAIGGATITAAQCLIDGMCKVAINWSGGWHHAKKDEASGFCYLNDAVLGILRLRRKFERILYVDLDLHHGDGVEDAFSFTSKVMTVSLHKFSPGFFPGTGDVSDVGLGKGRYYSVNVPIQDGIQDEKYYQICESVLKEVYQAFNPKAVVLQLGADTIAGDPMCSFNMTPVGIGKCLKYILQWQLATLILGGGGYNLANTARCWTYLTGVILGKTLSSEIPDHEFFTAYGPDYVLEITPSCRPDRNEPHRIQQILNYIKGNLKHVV
measurement.kind: IC50

Consider the worked cases shown below.
> print(dat)
                                   compound    test.value
1  Cc1nn(C)c(C)c1-c1cccc2cn(C(Cc3ccccc3)C(=O)NO)nc12 (stereo not drawn)      > 500 nM
2  O=C(NO)C(Cc1ccccc1)n1ncc2cc(Cl)ccc21 (stereo not drawn)  50 to 200 nM
3  O=C(NO)C(Cc1ccccc1)n1ncc2cc(-c3ccccc3)cnc21 (stereo not drawn)      > 500 nM

Bench note: what IC50 did COc1ncc(-c2cc3cnn(C(Cc4ccccc4)C(=O)NO)c3cn2)cn1 (stereo not drawn) show?
200 to 500 nM

Also, CNC(=O)c1ccc(-c2nccc3c(C#CC4CC4)n(C(Cc4ccccc4)C(=O)NO)nc23)cc1 (stereo not drawn) please.
≤ 50 nM

Field entry: O=C(NO)C(Cc1ccccc1)n1nc2c(Cl)nccc2c1I (stereo not drawn)
50 to 200 nM
